System: Hepatotoxicity
*1 amine or outer side, *2 acyl side, *3 side chain or, on linkers, in order; H or OH if unused. Where a SMILES comes first, the peptide text is derived from it. Bridges are numbered along the chain shown (N, C = ends). Roman numbers before positions name the chains, in order. [ ]: non-standard residue; d: D form. Actinocin(9to1) = Cc1c2oc3c(C)ccc(C(=O)[*:1])c3nc-2c(C(=O)[*:2])c(N)c1=O; NMeV = CN[C@H](C(=O)O)C(C)C; Sar = CNCC(=O)O
# HepSE_jaundice values compiled below
Give your answer as a number; write no unit.

Below, 5 compounds whose answers are already recorded.
compound	HepSE_jaundice
OCCN1C[C@H](O)[C@@H](O)[C@H](O)[C@H]1CO	0
COCCOC(=O)C1=C(C)NC(C)=C(C(=O)OC(C)C)C1c1cccc([N+](=O)[O-])c1 (stereo not given)	1
COc1ccccc1Oc1c(NS(=O)(=O)c2ccc(C(C)(C)C)cc2)nc(-c2ncccn2)nc1OCCO	1
CCN(CC)CCOC(=O)c1ccc(N)cc1	0
Cc1c2oc3c(C)ccc(C(=O)N[C@@H]4C(=O)N[C@H](C(C)C)C(=O)N5CCC[C@H]5C(=O)N(C)CC(=O)N(C)[C@@H](C(C)C)C(=O)O[C@@H]4C)c3nc-2c(C(=O)N[C@@H]2C(=O)N[C@H](C(C)C)C(=O)N3CCC[C@H]3C(=O)N(C)CC(=O)N(C)[C@@H](C(C)C)C(=O)O[C@@H]2C)c(N)c1=O [DACTINOMYCIN] (I: T[dV]P[Sar][NMeV] / II: T[dV]P[Sar][NMeV]; ester I:1-I:C, II:1-II:C; linker I:N-II:N via Actinocin(9to1))	0

Prompt: For COc1cc(N)c(Cl)cc1C(=O)NC1CCN(CCCOc2ccc(F)cc2)CC1OC (stereo not given) [CISAPRIDE] , what is its reported HepSE_jaundice?
Completion: 0

Prompt: Lookup CC[C@H](C)[C@@H]1NC(=O)[C@H](Cc2ccc(O)cc2)NC(=O)[C@@H](N)CSSC[C@@H](C(=O)N2CCC[C@H]2C(=O)N[C@@H](CC(C)C)C(=O)NCC(N)=O)NC(=O)[C@H](CC(N)=O)NC(=O)[C@H](CCC(N)=O)NC1=O
Completion: 0

###

Hepatotoxicity HepSE_hepatomegaly data
Give your answer as a number; write no unit.

Below, 2 compounds whose answers are already recorded.
compound	HepSE_hepatomegaly
CCC1(c2ccc(N)cc2)CCC(=O)NC1=O (configuration not stated) [AMINOGLUTETHIMIDE]	0
O=C(O)CCc1nc(-c2ccccc2)c(-c2ccccc2)o1	0

Prompt: For CC(=O)CC(c1ccccc1)c1c(O)c2ccccc2oc1=O (configuration not stated) , what is its reported HepSE_hepatomegaly?
Completion: 0

Prompt: Lookup CCCCCCCCCCC[C@@H](C[C@@H]1OC(=O)[C@H]1CCCCCC)OC(=O)[C@H](CC(C)C)NC=O
Completion: 0

Prompt: Lookup C[C@@H](O)C(=O)O
Completion: 0

Prompt: Lookup [Mg]
Completion: 0

Prompt: Lookup COCC1=C(C(=O)O)N2C(=O)[C@@H](NC(=O)/C(=N\OC)c3csc(N)n3)[C@H]2SC1
Completion: 0

Prompt: Lookup CCOC(=O)c1ncn2c1CN(C)C(=O)c1cc(F)ccc1-2
Completion: 0

Prompt: Lookup C[C@@H]1[C@H](O)[C@@H](C)/C=C/C=C/C=C/C=C/C=C/C=C/C=C/[C@H](O[C@@H]2O[C@H](C)[C@@H](O)[C@H](N)[C@@H]2O)C[C@@H]2O[C@](O)(C[C@@H](O)C[C@@H](O)[C@H](O)CC[C@@H](O)C[C@@H](O)CC(=O)O[C@H]1C)C[C@H](O)[C@H]2C(=O)O
Completion: 1

Prompt: Lookup C[C@]12CCC(=O)C=C1CC[C@@H]1[C@@H]2[C@@H](O)C[C@@]2(C)[C@H]1CC[C@]2(O)C(=O)CO [HYDROCORTISONE]
Completion: 1
